experiment.description: Antiproliferative activity against African green monkey Vero cells at 100 ug/ml after 48 hrs by BrdUrd incorporation assay
Assay type: cell-based
applied.conditions: chlorocebus sabaeus, read-out: GI
readout.label: inhibition at 48 h, 100 ug/ml
Returns: string containing the number followed by the unit.

Prompt: Note inhibition at 48 h, 100 ug/ml for the molecule shown: "Nc1nc2[nH]cc(CCc3ccc(C(=O)N[C@@H](CCC(=O)O)C(=O)O)cc3)c2c(=O)[nH]1"
Response: 10%

* * *

experiment.description: Antiproliferative activity against African green monkey Vero cells at 50 ug/ml after 48 hrs by BrdUrd incorporation assay
Assay type: cell-based
applied.conditions: chlorocebus sabaeus, read-out: GI
readout.label: inhibition at 48 h, 50 ug/ml (%)
Give just the numeric value; % need not be written.

Prompt: Note inhibition at 48 h, 50 ug/ml for the molecule shown: "COc1ccccc1N1CCn2c1nnc(-c1cccs1)c2=O"
Response: 75

Prompt: Note inhibition at 48 h, 50 ug/ml for the molecule shown: "O=c1c(-c2cccs2)nnc2n1CCN2c1ccc(Cl)cc1"
Response: 60

Prompt: Note inhibition at 48 h, 50 ug/ml for the molecule shown: "Cc1cccc(N2CCn3c2nnc(-c2cccs2)c3=O)c1C"
Response: 55

Prompt: Note inhibition at 48 h, 50 ug/ml for the molecule shown: "O=c1c(-c2cccs2)nnc2n1CCN2c1cccc(Cl)c1"
Response: 100

Prompt: Note inhibition at 48 h, 50 ug/ml for the molecule shown: "O=c1c(-c2cccs2)nnc2n1CCN2c1ccccc1"
Response: 75

Prompt: Note inhibition at 48 h, 50 ug/ml for the molecule shown: "O=c1c(-c2cccs2)nnc2n1CCN2c1ccccc1Cl"
Response: 60

Prompt: Note inhibition at 48 h, 50 ug/ml for the molecule shown: "O=c1c(-c2cccs2)nnc2n1CCN2c1ccc(Cl)c(Cl)c1"
Response: 50

Prompt: Note inhibition at 48 h, 50 ug/ml for the molecule shown: "Cc1ccc(N2CCn3c2nnc(-c2cccs2)c3=O)cc1"
Response: 95

Prompt: Note inhibition at 48 h, 50 ug/ml for the molecule shown: "Cc1ccccc1N1CCn2c1nnc(-c1cccs1)c2=O"
Response: 50

* * *

Tested on: T47D
experiment.description: Antiproliferative activity against human T47D cells at 50 ug/ml after 24 hrs by BrdUrd incorporation assay
Format: functional
applied.conditions: read-out: GI
We use 20% as the dividing line for inhibition of growth at 50 µg/mL: on or above the line is label 1, below is label 0.

Prompt: Tell me whether inhibition of growth at 50 µg/mL is at least 20% here: "O=c1c(-c2cccs2)nnc2n1CCN2c1ccccc1Cl"
Response: label 1

Prompt: Tell me whether inhibition of growth at 50 µg/mL is at least 20% here: "Cc1cccc(N2CCn3c2nnc(-c2ccco2)c3=O)c1C"
Response: label 0

Prompt: Tell me whether inhibition of growth at 50 µg/mL is at least 20% here: "Cc1ccccc1N1CCn2c1nnc(-c1cccs1)c2=O"
Response: label 1

Prompt: Tell me whether inhibition of growth at 50 µg/mL is at least 20% here: "O=c1c(-c2ccco2)nnc2n1CCN2c1ccccc1"
Response: label 1

Prompt: Tell me whether inhibition of growth at 50 µg/mL is at least 20% here: "Cc1ccccc1N1CCn2c1nnc(-c1ccco1)c2=O"
Response: label 1

Prompt: Tell me whether inhibition of growth at 50 µg/mL is at least 20% here: "O=c1c(-c2ccco2)nnc2n1CCN2c1ccccc1Cl"
Response: label 0

Prompt: Tell me whether inhibition of growth at 50 µg/mL is at least 20% here: "O=c1c(-c2cccs2)nnc2n1CCN2c1cccc(Cl)c1"
Response: label 1

Prompt: Tell me whether inhibition of growth at 50 µg/mL is at least 20% here: "Cc1ccc(N2CCn3c2nnc(-c2ccco2)c3=O)cc1"
Response: label 1

Prompt: Tell me whether inhibition of growth at 50 µg/mL is at least 20% here: "COc1ccccc1N1CCn2c1nnc(-c1ccco1)c2=O"
Response: label 0

Prompt: Tell me whether inhibition of growth at 50 µg/mL is at least 20% here: "O=c1c(-c2ccco2)nnc2n1CCN2c1ccc(Cl)cc1"
Response: label 0

Prompt: Tell me whether inhibition of growth at 50 µg/mL is at least 20% here: "O=c1c(-c2cccs2)nnc2n1CCN2c1ccc(Cl)c(Cl)c1"
Response: label 1

Prompt: Tell me whether inhibition of growth at 50 µg/mL is at least 20% here: "O=c1c(-c2ccco2)nnc2n1CCN2c1ccc(Cl)c(Cl)c1"
Response: label 0

* * *

System: Vero
experiment.description: Antiproliferative activity against African green monkey Vero cells at 50 ug/ml after 24 hrs by BrdUrd incorporation assay
Type: cell-based
applied.conditions: chlorocebus sabaeus
readout.label: growth inhibition (GI) (%)
Give just the numeric value; % need not be written.

Prompt: Note growth inhibition (GI) for the compound shown: "O=c1c(-c2cccs2)nnc2n1CCN2c1ccccc1"
Response: 50

Prompt: Note growth inhibition (GI) for the compound shown: "O=c1c(-c2cccs2)nnc2n1CCN2c1cccc(Cl)c1"
Response: 100

Prompt: Note growth inhibition (GI) for the compound shown: "Cc1ccc(N2CCn3c2nnc(-c2cccs2)c3=O)cc1"
Response: 90

* * *

experiment.description: Antiproliferative activity against African green monkey Vero cells at 50 ug/ml after 72 hrs by BrdUrd incorporation assay
Type: cell-based
applied.conditions: chlorocebus sabaeus, read-out: GI
readout.label: inhibition at 72 h, 50 ug/ml (%)
Give just the numeric value; % need not be written.

Prompt: Note inhibition at 72 h, 50 ug/ml for the compound shown: "O=c1c(-c2cccs2)nnc2n1CCN2c1cccc(Cl)c1"
Response: 100

Prompt: Note inhibition at 72 h, 50 ug/ml for the compound shown: "Cc1cccc(N2CCn3c2nnc(-c2cccs2)c3=O)c1C"
Response: 90

Prompt: Note inhibition at 72 h, 50 ug/ml for the compound shown: "Cc1ccc(N2CCn3c2nnc(-c2cccs2)c3=O)cc1"
Response: 100

Prompt: Note inhibition at 72 h, 50 ug/ml for the compound shown: "O=c1c(-c2cccs2)nnc2n1CCN2c1ccccc1Cl"
Response: 75

Prompt: Note inhibition at 72 h, 50 ug/ml for the compound shown: "O=c1c(-c2cccs2)nnc2n1CCN2c1ccc(Cl)cc1"
Response: 90

Prompt: Note inhibition at 72 h, 50 ug/ml for the compound shown: "Cc1ccccc1N1CCn2c1nnc(-c1cccs1)c2=O"
Response: 90

Prompt: Note inhibition at 72 h, 50 ug/ml for the compound shown: "COc1ccccc1N1CCn2c1nnc(-c1cccs1)c2=O"
Response: 90

Prompt: Note inhibition at 72 h, 50 ug/ml for the compound shown: "O=c1c(-c2cccs2)nnc2n1CCN2c1ccccc1"
Response: 90

Prompt: Note inhibition at 72 h, 50 ug/ml for the compound shown: "O=c1c(-c2cccs2)nnc2n1CCN2c1ccc(Cl)c(Cl)c1"
Response: 90

* * *

Tested on: A549
experiment.description: Antiproliferative activity against human A549 cells after 72 hrs by BrdUrd incorporation assay
Format: functional, cell-based
applied.conditions: A549, 72 h
readout.label: IC50 (µM)
Give just the numeric value; µM need not be written.

Prompt: Note IC50 for the compound shown: "O=c1c(-c2cccs2)nnc2n1CCN2c1cccc(Cl)c1"
Response: 80

Prompt: Note IC50 for the compound shown: "O=c1c(-c2cccs2)nnc2n1CCN2c1ccccc1"
Response: 80

Prompt: Note IC50 for the compound shown: "O=c1c(-c2cccs2)nnc2n1CCN2c1ccccc1Cl"
Response: 80

Prompt: Note IC50 for the compound shown: "O=c1c(-c2cccs2)nnc2n1CCN2c1ccc(Cl)c(Cl)c1"
Response: 70

Prompt: Note IC50 for the compound shown: "COc1ccccc1N1CCn2c1nnc(-c1cccs1)c2=O"
Response: 80

Prompt: Note IC50 for the compound shown: "Cc1ccccc1N1CCn2c1nnc(-c1cccs1)c2=O"
Response: 80

Prompt: Note IC50 for the compound shown: "Cc1ccc(N2CCn3c2nnc(-c2cccs2)c3=O)cc1"
Response: 80

Prompt: Note IC50 for the compound shown: "Cc1cccc(N2CCn3c2nnc(-c2cccs2)c3=O)c1C"
Response: 90

Prompt: Note IC50 for the compound shown: "O=c1c(-c2cccs2)nnc2n1CCN2c1ccc(Cl)cc1"
Response: 80

* * *

Please provide measured IC50 for the entries that follow.
Test system: Vero
experiment.description: Antiproliferative activity against African green monkey Vero cells after 72 hrs by BrdUrd incorporation assay
Type: cell-based
applied.conditions: Chlorocebus sabaeus

Prompt: Note IC50 for the compound shown: "O=c1c(-c2cccs2)nnc2n1CCN2c1cccc(Cl)c1"
Response: 80 µM

Prompt: Note IC50 for the compound shown: "Cc1ccc(N2CCn3c2nnc(-c2cccs2)c3=O)cc1"
Response: 80 µM

Prompt: Note IC50 for the compound shown: "Cc1ccccc1N1CCn2c1nnc(-c1cccs1)c2=O"
Response: 90 µM

Prompt: Note IC50 for the compound shown: "Cc1cccc(N2CCn3c2nnc(-c2cccs2)c3=O)c1C"
Response: 90 µM

Prompt: Note IC50 for the compound shown: "O=c1c(-c2cccs2)nnc2n1CCN2c1ccccc1"
Response: 90 µM

Prompt: Note IC50 for the compound shown: "O=c1c(-c2cccs2)nnc2n1CCN2c1ccccc1Cl"
Response: 100 µM

Prompt: Note IC50 for the compound shown: "COc1ccccc1N1CCn2c1nnc(-c1cccs1)c2=O"
Response: 90 µM

Prompt: Note IC50 for the compound shown: "O=c1c(-c2cccs2)nnc2n1CCN2c1ccc(Cl)cc1"
Response: 80 µM

Prompt: Note IC50 for the compound shown: "O=c1c(-c2cccs2)nnc2n1CCN2c1ccc(Cl)c(Cl)c1"
Response: 80 µM
